Biological target: TbNMT (Trypanosoma brucei, UniProt Q388H8)
Construct: native full-length enzyme in intact bloodstream form parasites; not purified
Sequence (Q388H8 1-446): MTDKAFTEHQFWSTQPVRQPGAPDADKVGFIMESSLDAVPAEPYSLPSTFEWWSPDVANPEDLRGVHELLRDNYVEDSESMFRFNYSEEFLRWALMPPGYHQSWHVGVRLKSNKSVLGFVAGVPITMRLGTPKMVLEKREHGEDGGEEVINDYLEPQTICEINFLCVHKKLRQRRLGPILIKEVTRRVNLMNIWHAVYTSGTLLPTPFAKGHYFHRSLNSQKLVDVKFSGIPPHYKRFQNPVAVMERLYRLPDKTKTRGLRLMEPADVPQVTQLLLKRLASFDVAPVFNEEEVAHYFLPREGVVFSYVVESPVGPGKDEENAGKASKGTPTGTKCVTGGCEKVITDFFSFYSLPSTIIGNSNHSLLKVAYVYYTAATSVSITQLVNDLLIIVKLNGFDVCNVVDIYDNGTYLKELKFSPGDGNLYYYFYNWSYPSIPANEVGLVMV
Experiment: in-gel fluorescence of YnMyr tagging (CuAAC, NaOH-treated gels) in intact BSF parasites
Settings: read-out: TC50 (tagging-IC50); 100 uM YnMyr, 1 h inhibitor pretreatment, 8 h labelling, 37 °C; whole-parasite value, not isolated enzyme
experimental_endpoint: IC50 (nM)
Unit nM implied. Number only.

Given the compound Cc1noc(C)c1NS(=O)(=O)c1c(Cl)cc(-c2ccnc(N3CCNCC3)c2)cc1Cl and test system TbNMT (Trypanosoma brucei, UniProt Q388H8), the measured IC50 is 2570
